Reference for the values: ChEMBL document CHEMBL1144988

Protocol notes: Area Under the concentration-time curve from zero time to 24 hr in guinea pig when given at a dose of 10 mg/kg perorally (cremophor)
Format: ADME, organism-based, Cavia porcellus
Set-up: time < 24 hr, dose 10 mg/kg, route oral
Condition set: in vivo, po
Property label: AUC at 24 h (µg·h/mL)
Please reply with the bare figure in µg·h/mL and do not write the unit itself.

-- ask For the molecule shown here, CN(C(=O)c1cc(C(F)(F)F)cc(C(F)(F)F)c1)[C@@H](/C=C/C(=O)N[C@@H]1CCCCNC1=O)Cc1ccc(Cl)c(Cl)c1 [DNK333] , give the reported AUC at 24 h.
-- reply 2.71

====

Protocol notes: Half life period in guinea pig when given at a dose of 10 mg/kg perorally
Type: ADME, organism-based, Cavia porcellus
Design: dose 10 mg/kg, route oral
Condition set: in vivo, po
Property label: half-life

-- ask For the compound shown here, `CN(C(=O)c1cc(C(F)(F)F)cc(C(F)(F)F)c1)[C@@H](/C=C/C(=O)N[C@@H]1CCCCNC1=O)Cc1ccc(Cl)c(Cl)c1` , give the reported half-life.
-- reply 3.8 h

====

Protocol notes: Half life period in guinea pig when given at a dose of 3 mg/kg intravenously
Type: ADME, organism-based, Cavia porcellus
Design: dose 3 mg/kg, route intravenous
Condition set: in vivo, iv
Property label: half-life (h)
Please reply with the bare figure in h and do not write the unit itself.

-- ask For the compound shown here, `CN(C(=O)c1cc(C(F)(F)F)cc(C(F)(F)F)c1)[C@@H](/C=C/C(=O)N[C@@H]1CCCCNC1=O)Cc1ccc(Cl)c(Cl)c1` , give the reported half-life.
-- reply 4.2

====

Protocol notes: Plasma concentration in Blood of guinea pig when given at a dose of 10 mg/kg perorally
Format: ADME, organism-based, Cavia porcellus
Design: dose 10 mg/kg, route oral
Condition set: plasma, po
Property label: Cmax (ng/mL)
Please reply with the bare figure in ng/mL and do not write the unit itself.

-- ask For the compound shown here, CN(C(=O)c1cc(C(F)(F)F)cc(C(F)(F)F)c1)[C@@H](/C=C/C(=O)N[C@@H]1CCCCNC1=O)Cc1ccc(Cl)c(Cl)c1 [DNK333] , give the reported Cmax.
-- reply 600

====

Protocol notes: Area Under the concentration-time curve from zero time to 24 hr in guinea pig when given at a dose of 10 mg/kg perorally (Microemulsion)
Format: ADME, organism-based, Cavia porcellus
Set-up: time < 24 hr, dose 10 mg/kg, route oral
Condition set: in vivo, po
Property label: AUC at 24 h (ng·h/mL)
Please reply with the bare figure in ng·h/mL and do not write the unit itself.

-- ask For the compound shown here, `CN(C(=O)c1cc(C(F)(F)F)cc(C(F)(F)F)c1)[C@@H](/C=C/C(=O)N[C@@H]1CCCCNC1=O)Cc1ccc(Cl)c(Cl)c1` , give the reported AUC at 24 h.
-- reply 6380

====

Protocol notes: Area Under the concentration-time curve from zero time to 24 hr in guinea pig when given at a dose of 3 mg/kg intravenously
Format: ADME, organism-based, Cavia porcellus
Parameters: time < 24 hr, dose 3 mg/kg, route intravenous
Condition set: in vivo, iv
Property label: AUC at 24 h (ng·h/mL)
Please reply with the bare figure in ng·h/mL and do not write the unit itself.

-- ask For the compound shown here, `CN(C(=O)c1cc(C(F)(F)F)cc(C(F)(F)F)c1)[C@@H](/C=C/C(=O)N[C@@H]1CCCCNC1=O)Cc1ccc(Cl)c(Cl)c1` , give the reported AUC at 24 h.
-- reply 4690
